Target: pooled human IgG (human IgG1,2,3 and 4)
VALUE_KIND: Enzyme Activity Endpoint Assay (purified): scIgG

>  <PROTEIN>
PRT-303 (protein) MVTSVWTKGVTPPTDFIKGEDVFHAPYDAGQGWYDITKTFNGKDDLLCGAATAGNMLHWWFDQNKEYIEAYLKKHPEKQKIMFGDQELLDVRKAINTKGSQKNSELFNYFRDKAFPNLSARRLGVMPDLVLDMFINGYYLNVTKTQTTDVNRTYQEKDKRGGIFDAVFTRGDQSKLLTSRHDFKEKGLKEISDLIKQELTEGKALGLSHTYANVRISHVINLWGADFDSDGNLKAIYVTDSDSNASIGMKKYGVGVNSAGKVAISAKEIKEDNIGAQVLGLFTLSTGQDIWNQTN

>  <VALUE_REPORTED>
0 ng/µL

$$$$
>  <PROTEIN>
PRT-357 (protein) MSQTEDSESLQRLRDIEDFQAEKEKQNVVYTKWLDGVDVKDHDFRKIVDGNSAYYATPLLNGRGWYDINKDFNRDSDKCAAAVAANMFHYWLDRNRDNVDRFLRQNPEKHGIIELPDGQLKLSDFLNTYESDDGYRDKSKLFDFISNNFNGPVWTDKLLDNYINGYAYNYKYGRTIEDPTKNTSKINFFKEVFNEKILTNNHSIRNQNEFSVLLSEALYTGKAIGLSYGPAGLRHSLGHIISVWGADLDADGNVVAIYVTDSDDKKLTIGDERVGLKRYKISTDDEGRLRLTAYEETHNTGGQVRGLWTLDTGKQAWADYFDKTEQTGTDQAEQ

>  <VALUE_REPORTED>
313 ng/µL

$$$$
